procedure_summary: compound fluorescence in toxin protease inhibitor counterscreen, primary screen, artefact control for toxin protease inhibitor project, biochemical, multiplex microsphere, HTS (AID 624483)
run_parameters: compound autofluorescence counterscreen, microsphere flow cytometry; stronger effect = higher value
The whole screen tested about 360,000 compounds, of which about 11,000 (3.1%) were called active. About 2% were inconclusive and are not listed. Shown is part of a subset that was picked to be rich in actives.
assay_endpoint: fluorescence intensity

> print(dat)
                                    compound  measured
 1    COc1ccccc1CNc1nc(Nc2ccccc2Cl)c2sccc2n1      3450
 2  CC1(C(=O)NS(=O)(=O)Cc2cccc(Cl)c2)CCN1C(=O)Cc1ccc(Cl)cc1Cl (stereo not drawn)      3610
 3  O=C(NC1(C(F)(F)F)NC(=O)N(Cc2cccnc2)C1=O)c1ccccc1Cl (stereo not drawn)     21200
 4          COc1ccc(NC2=CC(=S)NC(C)(C)C2)cc1     26300
 5                Cn1ncc(Br)c1C(=O)NCc1cccs1     23700
 6         Cc1c(Br)cc(C(=O)N2CCCCCC2)c(C)c1C      4200
 7  CCOC(=O)C1=C(CC)OC(N)=C(C#N)C1c1ccc(F)cc1F (stereo not drawn)      2060
 8  O=C(NCc1cccnc1)c1ccccc1NC(=O)c1c(F)cccc1F      5910
 9   COc1ccc(S(=O)(=O)NCCCCOc2ccc(Cl)cc2)cc1      3450
10                 O=C(NCc1cccs1)c1ccc(Br)o1      2540
11  COc1ccc(C(O)c2nc(-c3ccc(OC)nc3)cs2)cc1 (stereo not drawn)      3040
12  CC(=O)NC(c1ccccc1)c1nc(-c2cccc(C(C)C)c2)cs1 (stereo not drawn)      3400
13  CC1CCN(S(=O)(=O)c2ccc(S(=O)(=O)NCc3ccco3)cc2)CC1      6420
14  CCOC(=O)N/N=C1\CC(C)S(=O)(=O)c2ccc(Cl)cc21 (stereo not drawn)      3940
15  O=C(c1ccc(Cl)cc1)c1ccc(OCC(O)CN2CCCCC2)cc1 (stereo not drawn)      4210
16  CCNC(=O)C1CCCN(C(=O)c2cc(F)ccc2C)CC1 (stereo not drawn)      3900
17  COc1ccc(-c2nc3ccc(Br)cn3c2Cc2ccc(C)cc2)cc1OC      4350
18       CC(C)Nc1nc(NCCOc2ccccc2Cl)c2sccc2n1      4090
19  Cc1ccc(N2C(=O)CC(Nc3cccc4ccccc34)C2=O)cc1 (stereo not drawn)      3720
20  O=C(c1cccc(Br)c1)N1CCN(C2=NS(=O)(=O)c3ccccc32)CC1      5480
21  Cn1c(=O)c2c(nc(N3CCCCCC3)n2CC(O)COc2ccc(Cl)cc2)n(C)c1=O (stereo not drawn)     21800
22  COc1ccc(N(CC(=O)N2CCCCCC2)S(=O)(=O)c2ccccc2)cc1      5240
23  OC(c1ccccc1)c1nc(-c2cnc3ccccc3c2)cs1 (stereo not drawn)      3830

###

In this section, each of the molecules is paired with its reported fluorescence intensity.
procedure_summary: compound fluorescence in toxin protease inhibitor counterscreen, primary screen, artefact control for toxin protease inhibitor project, biochemical, multiplex microsphere, HTS (AID 624483)
run_parameters: compound autofluorescence counterscreen, microsphere flow cytometry; stronger effect = higher value
The campaign covered roughly 360,000 compounds. About 11,000 (3.1%) were called active. Another 2% or so got no clear call; they are omitted. This is one part of a sample in which actives are shown more often than they occur.
assay_endpoint: fluorescence intensity

> print(dat)
                                   molecule  measured
1  CN(C)c1cccc(NC(=O)c2ccc(-c3ccc(F)c(F)c3)c3ccoc23)c1      3910
2      Cc1ccc2nc(-c3ccccc3)c(CC3CCCCC3)n2c1      8550
3  O=C(NCc1cccnc1)c1cc(C2CCCN(C(=O)C3CCCCC3)C2)on1 (stereo unspecified)      3680
4  CCOCCCN1C(=O)CN(C2CCCCC2)C(=O)C1c1ccc(OCC)c(OC)c1 (stereo unspecified)     15500
5  Cc1csc(=O)n1CCC(=O)OCC(=O)NNC(=O)c1ccc(Br)cc1      3030
6        Oc1ccc(Cl)cc1/C=N/c1nc2ccccc2[nH]1     22500

###

procedure_summary: compound fluorescence in toxin protease inhibitor counterscreen, primary screen, artefact control for toxin protease inhibitor project, biochemical, multiplex microsphere, HTS (AID 624483)
run_parameters: compound autofluorescence counterscreen, microsphere flow cytometry; stronger effect = higher value
Among all 360,000 compounds or so, about 11,000 (3.1%) were called active. Inconclusive results (about 2%) are left out. The entries come from a sample that favours actives as a whole.
assay_endpoint: fluorescence intensity

> print(dat)
                                    compound          assay.endpoint  measured
 1  CC(C)CCn1cnc2c1c(=O)n(CC(=O)NC(N)=O)c(=O)n2Cc1ccccc1  fluorescence intensity      3800
 2  O=C(CCCn1c(SCC(=O)c2ccccc2)nc2ccccc2c1=O)NCC1CCCO1 (stereo not given)  fluorescence intensity     23800
 3  O=C(CSc1nc2ccccc2c(=O)n1Cc1ccc(F)cc1)NCC1CCCO1 (stereo not given)  fluorescence intensity      6760
 4        CNc1cncc(-c2ccc(NS(C)(=O)=O)cc2)n1  fluorescence intensity      3500
 5  CCCCn1c(SCC(=O)NCC2CCCO2)nc2ccc(N3CCOCC3)cc2c1=O (stereo not given)  fluorescence intensity     21100
 6  COc1ccc(S(=O)(=O)N2CCC(C(=O)N3CCCC3)CC2)cc1C  fluorescence intensity      2980
 7  CCn1c(SCC(=O)NCC2CCCO2)nc2ccccc21 (stereo not given)  fluorescence intensity      4090
 8  Clc1ccc2c(c1)C1=C(C(c3ccncc3)O2)C(c2ccc(Br)cc2)n2ncnc2N1 (stereo not given)  fluorescence intensity     16600
 9  CC(C)Cn1cnc2c1c(=O)n(CC(O)c1ccccc1)c(=O)n2CC(C)C (stereo not given)  fluorescence intensity     16100
10  CCOC(=O)c1c(-c2ccccc2)oc2ccc(OC(=O)N(C)C)cc12  fluorescence intensity     18300

###

procedure_summary: compound fluorescence in toxin protease inhibitor counterscreen, primary screen, artefact control for toxin protease inhibitor project, biochemical, multiplex microsphere, HTS (AID 624483)
run_parameters: compound autofluorescence counterscreen, microsphere flow cytometry
Out of some 360,000 compounds screened, about 11,000 (3.1%) were called active. Roughly 2% stayed inconclusive and do not appear here. No stated cut-off is given here; in the data, active means fluorescence intensity above about 16000; inconclusive means no clear call, values can overlap the other calls; inactive means below that. Many of the other results were omitted from the sample, so actives are more common in it than they were.
Outcomes: label 1 (active), label 0 (inactive)

> print(dat)
                                    compound  category
 1  CC(=O)Nc1cccc(OCC(=O)/C=C2\N(C)c3ccccc3C2(C)C)c1   label 0
 2  CCCn1nc(C(=O)N2CCCc3ccccc32)c2ccccc2c1=O   label 0
 3  COc1cccc(-n2c(=S)sc3c(=O)n(-c4ccccc4C)c(SCC(=O)O)nc32)c1   label 0
 4                COc1ccccc1CCNC(=O)c1cnccn1   label 1
 5  Cc1noc(C)c1C(=O)OCC(=O)/C=C1\N(C)c2ccccc2C1(C)C   label 1
 6  CCn1c2ccccc2c2cc(NC(=O)C/C(C)=N/NC(=O)c3ccccc3N)ccc21   label 1
 7  O=C(CN1CCN(c2ccc(F)cc2)CC1)Nc1cccc(C(F)(F)F)c1   label 0
 8  CCn1c2ccccc2c2cc(NC(=O)COC(=O)c3cc(S(=O)(=O)N4CCCCC4)ccc3Cl)ccc21   label 0
 9  CCN(C(=O)CN1CCN(Cc2ccccc2)CC1)c1c(N)n(Cc2ccccc2)c(=O)[nH]c1=O   label 0
10  CCOC(=O)CSc1nc2c(sc(=S)n2CCc2ccccc2)c(=O)n1Cc1ccco1   label 1
11  CCOC(=O)CSc1nc2c(c(=O)n(Cc3ccccc3Cl)c(=O)n2C)n1C   label 0
12  CC1(C)OC(=O)C2=C(C[C@@H](C3CCCC3)O[C@@H]2c2ccc(Cl)cc2)O1   label 0
13  Cc1noc(C)c1C(=O)OCC(=O)N1CCN(S(=O)(=O)c2ccc3ccccc3c2)CC1   label 0
14  CCCCn1nc(C(=O)N2CCc3ccccc32)c2ccccc2c1=O   label 1
15  O=C(COC(=O)c1ccc(F)c(S(=O)(=O)N2CCOCC2)c1)NCc1ccc2c(c1)OCO2   label 0
16  COC(=O)C1(C(=O)OC)C/C=C\CN(S(=O)(=O)c2ccccc2[N+](=O)[O-])CCC1   label 0
17    COc1ccccc1CCNC(=O)c1c(C)nn(CC(C)C)c1Cl   label 0
18         O=C(NCCCNC(=O)c1ccccc1Cl)c1cnccn1   label 0
19  CC1=NNC(=O)C1CC(=O)N/N=C/c1ccncc1 (stereo unspecified)   label 0
20  Nc1ncnc2c1ncn2[C@@H]1O[C@H](CNC(=O)[C@H](N)Cc2cccnc2)[C@@H](O)[C@H]1O   label 0
21  COc1ccc(NC(=O)C2(C)Cc3c(-c4ccc(C(N)=O)cc4)ccnc3O2)cc1 (stereo unspecified)   label 0
